# credit: ChEMBL document CHEMBL1201862

Test system: XF498
Assay: NCI tumour cell line growth inhibition, 48 h
The source made the active and inactive calls. No stated cut-off is given here; in the data, active = GI50 up to about 1.1 µM and inactive = higher.
Classes used: active, inactive

* Cc1ccc(S(=O)OC2C3CC4CC(C3)CC2C4)cc1 (stereo not given) | inactive
* O=C(CC(=O)N1N=C(c2ccccc2)C(/N=N/c2ccccc2Cl)C1=O)Nc1ccccc1Cl (stereo not given) | inactive
* COc1ccc2[nH]c3c(C)c4c(c(C)c3c2c1)CN(C)C=C4 | active
* C=C1C(=O)OC2CC3(C)C=CC(=O)C(=C)C3CC12 (stereo not given) | inactive
* C=C1C=CC2(Br)OC3CC(C)(Cl)C(Br)CC13C2(C)C (stereo not given) | inactive

---

System: NCI-H460
Experiment: NCI tumour cell line growth inhibition, 48 h
Calls of active or inactive are those of the source. Cut-off read from the data, not from the text of the source: active = GI50 up to about 1.1 µM and inactive = higher.
Outcome codes: label 1 for active, label 0 for inactive

• NC(=S)N/N=C1\CCCCC1C(O)(C(F)(F)Cl)C(F)(F)Cl (stereo not given) = label 0
• COc1ccc(C(Nc2ncccn2)c2cc3c(cc2O)OCO3)cc1 (stereo not given) = label 0
• CN1CCCS/C1=C1/SC(=S)N(c2ccccc2)C1=O = label 0
• CCCCN(CCCC)C(=O)C(=O)C(C(=O)c1ccc(OC)cc1)c1ccc(OC)cc1 (stereo not given) = label 0
• CN1c2ccccc2S(=O)(=O)n2c(COc3ccccc3)nnc21 = label 0
• CCN(C)c1nc(N(C)CC)c2nc(N(C)CC)nc(N(C)CC)c2n1 = label 0
• COC(CN(C=O)[C@@H](c1ccc(Cl)cc1)c1cc2ccccc2o1)OC = label 0
• C=CC(=O)C#Cc1cnc(OC)nc1OC = label 0
• C#CCNC(=O)NCCCCC(NC(=O)OCc1ccccc1)C(=O)OCc1ccccc1 (stereo not given) = label 0
• C[C@]12CC[C@H]3[C@@H](CCC4=CC(=O)CC[C@@H]43)[C@@H]1CC[C@]2(O)C(N)=O = label 0
• COC(=O)Nc1nc(=O)c2cc(OC)c(OC)cc2[nH]1 = label 0
• Cc1cc2c(c3oc(C4(C)OC4C4OC4C)cc(=O)c13)C(=O)c1c(O)c(C3CC(C)(N(C)C)C(O)C(C)O3)cc(C3CC(N(C)C)C(O)C(C)O3)c1C2=O (stereo not given) = label 1
• NC(Cc1c[nH]c(I)n1)C(=O)O (stereo not given) = label 0
• CCCCN(CCCC)CC(C(=O)Nc1ccc([N+](=O)[O-])cc1[N+](=O)[O-])/C(C)=N\NC(=O)c1ccncc1 (stereo not given) = label 0
• COc1ccc2c(C)cc(N/N=C/c3ccc(OC)c4ccccc34)nc2c1 = label 0

---

Tested on: NCI-H522
Experiment: NCI tumour cell line growth inhibition, 48 h
Activity calls are given as the source filed them. Cut-off read from the data, not from the text of the source: active = GI50 up to about 1.1 µM and inactive = higher.
Measured GI50 values are reported for all entries that follow.
Property label: GI50

• COc1ccccc1NC(=O)CC(=O)N/N=C/c1ccc(N(CCC#N)S(=O)(=O)c2ccccc2)cc1 = > 100 µM (inactive)
• COc1ccc(Cc2nc3cc(C(F)(F)F)ccc3n2CCCN(C)C)cc1 = 14.8 µM (inactive)
• CN(C(=O)c1ccco1)C(=S)N1CCN(c2ccccn2)CC1 = > 100 µM (inactive)
• Cc1cc2ncn(C3CCCO3)c2cc1C (configuration not stated) = 12.1 µM (inactive)
• Cc1cccc2nc(-c3ccccc3)cc(=O)n12 = 58.9 µM (inactive)
• CCC1=CC2CN3CCc4c([nH]c5ccccc45)C(C(=O)OC)(C2)C13 (configuration not stated) = 45.7 µM (inactive)
• Cc1ccnc2nc(-c3ccc(F)cc3)cc(O)c12 = 9.04 µM (inactive)
• O=[N+]([O-])c1ccc2c(c1)/C(=N/N=C1c3ccccc3Cc3ccccc31)c1cc([N+](=O)[O-])cc([N+](=O)[O-])c1-2 = 1.63 µM (inactive)
• NC(=O)NO [HYDROXYUREA] = 729 µM (inactive)
• Nn1c(CCCl)nc2c(Br)cc(Br)cc2c1=O = 15.9 µM (inactive)
• CN(C)/C=N/S(=O)(=O)c1nn2c(C=O)c(-c3ccc([N+](=O)[O-])cc3)nc2s1 = 1.27 µM (inactive)
• CCCCCCCCCc1cc(O)c(O)cc1CCCCCCCCC = > 10 µM (inactive)
